Target: D3 (h), human recombinant (CHO cells) (Homo sapiens, UniProt P35462)
Construct: expressed in transfected cells; host or cells: CHO cells
Sequence (P35462 whole entry): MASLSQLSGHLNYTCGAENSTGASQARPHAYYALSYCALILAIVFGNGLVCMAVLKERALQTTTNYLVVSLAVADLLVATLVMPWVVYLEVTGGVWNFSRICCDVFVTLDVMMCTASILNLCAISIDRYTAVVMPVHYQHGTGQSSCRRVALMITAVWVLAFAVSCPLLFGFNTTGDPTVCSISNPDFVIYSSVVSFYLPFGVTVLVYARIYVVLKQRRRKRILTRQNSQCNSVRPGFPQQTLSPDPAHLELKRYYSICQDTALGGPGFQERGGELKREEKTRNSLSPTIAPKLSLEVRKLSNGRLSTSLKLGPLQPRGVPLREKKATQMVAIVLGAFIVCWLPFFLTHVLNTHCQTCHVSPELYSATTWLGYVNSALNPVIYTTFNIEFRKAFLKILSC
Assay: Cellular functional assay D3 (h) agonism
Type: cell-based
Conditions: compound 1×10^−6 M; control 0.3 μM dopamine
Quick reference: D3-ag [%] of the listed items.
Numeric answer only, unit % assumed.

Smi: O=C1CCc2ccc(OCCCCN3CCN(c4cccc5c4ccn5Cc4ccccc4)CC3)cc2N1
Val: 22
--
Smi: O=C1CCc2ccc(OCCCN3CCN(c4cccc5c4ccn5Cc4ccccc4)CC3)cc2N1
Val: 22

Q: For the molecule NC(=O)c1ccccc1OCCCN1CCN(c2cccc3c2ccn3S(=O)(=O)c2ccccc2)CC1 , what D3-ag [%] is on record?
Ans: 34

Q: For the molecule O=C1CCc2ccc(OCCCCN3CCN(c4cccc5c4ccn5Cc4cccc(F)c4)CC3)cc2N1 , what D3-ag [%] is on record?
Ans: 20

Q: For the molecule O=C1CCc2ccc(OCCCN3CCN(c4cccc5c4ccn5S(=O)(=O)c4ccccc4)CC3)cc2N1 , what D3-ag [%] is on record?
Ans: 65

Q: For the molecule O=C1CCc2ccc(OCCCCN3CCN(c4cccc5c4ccn5Cc4cccc(Cl)c4)CC3)cc2N1 , what D3-ag [%] is on record?
Ans: 11

Q: For the molecule O=C1CCc2ccc(OCCCCN3CCN(c4cccc5c4ccn5S(=O)(=O)c4ccccc4)CC3)cc2N1 , what D3-ag [%] is on record?
Ans: 13

====

Quick reference: H1 [%] affinity test result of the listed items.
Target: H1 histaminergic receptors, human recombinant (HEK-293 cells) (Homo sapiens, UniProt P35367)
Construct: expressed in transfected cells; host or cells: HEK-293 cells
Sequence (P35367 whole entry): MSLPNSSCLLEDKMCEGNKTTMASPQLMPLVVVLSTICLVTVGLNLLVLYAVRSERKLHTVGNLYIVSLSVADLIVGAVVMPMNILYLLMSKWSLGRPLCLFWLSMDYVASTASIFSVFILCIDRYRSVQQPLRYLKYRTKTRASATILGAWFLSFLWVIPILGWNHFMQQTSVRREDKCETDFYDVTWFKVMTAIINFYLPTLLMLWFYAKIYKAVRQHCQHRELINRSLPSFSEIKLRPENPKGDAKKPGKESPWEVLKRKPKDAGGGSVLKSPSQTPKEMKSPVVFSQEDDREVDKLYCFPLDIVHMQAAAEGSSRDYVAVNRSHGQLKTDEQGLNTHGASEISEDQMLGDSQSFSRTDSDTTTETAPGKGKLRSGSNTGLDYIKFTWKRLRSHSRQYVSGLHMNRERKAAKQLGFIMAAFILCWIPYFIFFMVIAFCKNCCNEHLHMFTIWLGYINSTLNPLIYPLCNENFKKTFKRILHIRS
Assay: Binding assay, H1 histaminergic receptor ([3H]pyrilamine)
Conditions: compound 1×10^−6 M
Numeric answer only, unit % assumed.

Smi: O=C1CCc2ccc(OCCCCN3CCN(c4cccc5c4ccn5Cc4ccccc4)CC3)cc2N1
Unit Of Measure: %
H1 [%] affinity test result: 88

Q: For the molecule NC(=O)c1ccccc1OCCCN1CCN(c2cccc3c2ccn3S(=O)(=O)c2ccccc2)CC1 , what H1 [%] affinity test result is on record?
Ans: 80

Q: For the molecule O=C1CCc2ccc(OCCCCN3CCN(c4cccc5c4ccn5Cc4cccc(F)c4)CC3)cc2N1 , what H1 [%] affinity test result is on record?
Ans: 81

====

Target: 5-HT6 (h), human recombinant (CHO cells) (Homo sapiens)
Construct: expressed in transfected cells; host or cells: CHO cells
Test: Cellular functional assay 5-HT6 (h) agonism
Type: cell-based
Conditions: compound 1×10^−6 M, control 10 μM serotonin, read-out: 5-HT6-ag [%]
Quick reference: activation at 1 µM of the listed items.

Q: For the compound O=C1CCc2ccc(OCCCCN3CCN(c4cccc5c4ccn5Cc4cccc(Cl)c4)CC3)cc2N1 , what activation at 1 µM is on record?
Ans: 0%

====

Biological target: D2 receptor, human recombinant (GeneBLAzer D2-Gqo5 CHO-K1 DA) (Homo sapiens)
Sequence (P14416 whole entry): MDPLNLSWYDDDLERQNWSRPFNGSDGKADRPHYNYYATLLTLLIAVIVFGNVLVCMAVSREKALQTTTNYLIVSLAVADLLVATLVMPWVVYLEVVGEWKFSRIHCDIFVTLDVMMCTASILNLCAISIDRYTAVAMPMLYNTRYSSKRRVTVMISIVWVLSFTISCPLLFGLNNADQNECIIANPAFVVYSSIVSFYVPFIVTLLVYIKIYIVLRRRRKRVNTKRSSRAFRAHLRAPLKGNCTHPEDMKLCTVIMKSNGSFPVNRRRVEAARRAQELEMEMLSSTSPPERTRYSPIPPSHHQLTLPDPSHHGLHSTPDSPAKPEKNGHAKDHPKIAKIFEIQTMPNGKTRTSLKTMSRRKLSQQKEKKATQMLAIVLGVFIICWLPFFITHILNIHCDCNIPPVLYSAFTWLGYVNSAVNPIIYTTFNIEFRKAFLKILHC
Assay: Binding assay, dopaminergic D2 receptor ([3H]methylspiperone)
Details: read-out: Inhibition constant Ki D2
Quantity Name: pKi
Please note pKi is a logarithmic value: minus log10 of concentration in mol/L. Answer with that number alone.

Smi: NC(=O)c1ccccc1OCCCN1CCN(c2cccc3c2ccn3S(=O)(=O)c2ccccc2)CC1
Quantity Name: pKi
Val: 8.49
//
Smi: O=C1CCc2ccc(OCCCCN3CCN(c4cccc5c4ccn5S(=O)(=O)c4ccccc4)CC3)cc2N1
Quantity Name: pKi
Val: 8.89

Kindly review the next compound as well.
Q: For the compound O=C1CCc2ccc(OCCCN3CCN(c4cccc5c4ccn5S(=O)(=O)c4ccccc4)CC3)cc2N1 , what pKi is on record?
Ans: 7.49

====

Target: α2C adrenergic receptors, human recombinant (CHO cells) (Homo sapiens, UniProt P18825)
Construct: expressed in transfected cells; host or cells: CHO cells
Sequence (P18825 whole entry): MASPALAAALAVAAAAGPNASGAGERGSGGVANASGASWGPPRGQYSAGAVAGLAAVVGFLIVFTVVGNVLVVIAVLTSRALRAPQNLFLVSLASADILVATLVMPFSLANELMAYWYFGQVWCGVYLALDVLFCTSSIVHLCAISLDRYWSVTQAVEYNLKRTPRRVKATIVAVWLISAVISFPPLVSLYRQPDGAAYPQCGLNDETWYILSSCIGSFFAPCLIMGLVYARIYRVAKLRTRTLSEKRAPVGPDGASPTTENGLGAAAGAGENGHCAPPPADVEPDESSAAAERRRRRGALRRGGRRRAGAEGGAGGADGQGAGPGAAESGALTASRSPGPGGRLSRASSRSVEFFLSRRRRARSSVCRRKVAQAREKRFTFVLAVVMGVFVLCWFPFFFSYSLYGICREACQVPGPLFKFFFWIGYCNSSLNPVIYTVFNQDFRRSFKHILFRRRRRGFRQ
Assay: Binding assay, α2C adrenergic receptor ([3H]RX 821002)
Details: compound 1×10^−6 M
Quick reference: α2C [%] affinity test result of the listed items.
Numeric answer only, unit % assumed.

Q: For the compound O=C1CCc2ccc(OCCCCN3CCN(c4cccc5c4ccn5Cc4cccc(F)c4)CC3)cc2N1 [Compound 63] , what α2C [%] affinity test result is on record?
Ans: 100

Q: For the compound NC(=O)c1ccccc1OCCCN1CCN(c2cccc3c2ccn3S(=O)(=O)c2ccccc2)CC1 [Compound 72] , what α2C [%] affinity test result is on record?
Ans: 74

Q: For the compound O=C1CCc2ccc(OCCCN3CCN(c4cccc5c4ccn5Cc4ccccc4)CC3)cc2N1 [Compound 4] , what α2C [%] affinity test result is on record?
Ans: 93

====

Biological target: H1 histaminergic receptors, human recombinant (HEK-293 cells) (Homo sapiens)
Assay: Binding assay, H1 histaminergic receptor ([3H]pyrilamine)
Settings: read-out: Inhibition constant Ki H1
Quantity Name: Ki (nM)
Numeric answer only, unit nM assumed.

Compound: O=C1CCc2ccc(OCCCN3CCN(c4cccc5c4ccn5S(=O)(=O)c4ccccc4)CC3)cc2N1 [Compound 23]
Val: 150

Kindly review the next compound as well.
Q: For the compound O=C1CCc2ccc(OCCCCN3CCN(c4cccc5c4ccn5S(=O)(=O)c4ccccc4)CC3)cc2N1 [Compound 24] , what Ki is on record?
Ans: 100

====

Test system: σ receptors (rat cerebral cortex)
Assay: Binding assay, σ receptors ([3H]DTG)
Settings: compound 1×10^−6 M
Quantity Name: σ [%] affinity test result (%)
Numeric answer only, unit % assumed.

Smi: O=C1CCc2ccc(OCCCCN3CCN(c4cccc5c4ccn5S(=O)(=O)c4ccccc4)CC3)cc2N1
Quantity Name: σ [%] affinity test result
Unit Of Measure: %
Val: 57
//
Smi: O=C1CCc2ccc(OCCCCN3CCN(c4cccc5c4ccn5Cc4ccccc4)CC3)cc2N1
Quantity Name: σ [%] affinity test result
Unit Of Measure: %
Val: 52
//
Smi: O=C1CCc2ccc(OCCCN3CCN(c4cccc5c4ccn5Cc4ccccc4)CC3)cc2N1
Quantity Name: σ [%] affinity test result
Unit Of Measure: %
Val: 45

Kindly review the next compound as well.
Q: For the compound O=C1CCc2ccc(OCCCN3CCN(c4cccc5c4ccn5S(=O)(=O)c4ccccc4)CC3)cc2N1 , what σ [%] affinity test result is on record?
Ans: 13

====

Target: 5-HT6 receptor, human recombinant (Homo sapiens)
Sequence (P50406 whole entry): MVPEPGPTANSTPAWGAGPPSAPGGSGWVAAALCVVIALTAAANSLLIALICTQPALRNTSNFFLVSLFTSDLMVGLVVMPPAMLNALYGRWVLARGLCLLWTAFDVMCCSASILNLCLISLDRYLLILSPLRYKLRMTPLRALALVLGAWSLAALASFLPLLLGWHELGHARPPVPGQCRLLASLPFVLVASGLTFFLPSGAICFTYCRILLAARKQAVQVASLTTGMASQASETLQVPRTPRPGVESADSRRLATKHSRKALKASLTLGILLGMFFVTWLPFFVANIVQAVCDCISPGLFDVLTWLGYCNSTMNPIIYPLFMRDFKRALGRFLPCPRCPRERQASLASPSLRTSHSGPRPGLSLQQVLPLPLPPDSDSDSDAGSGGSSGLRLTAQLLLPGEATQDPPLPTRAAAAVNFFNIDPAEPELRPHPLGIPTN
Assay: Binding assay, 5-HT6 receptor ([3H]LSD)
Conditions: read-out: Inhibition constant Ki 5-HT6
Quantity Name: Ki (nM)
Numeric answer only, unit nM assumed.

Example cases with answers are listed next.
Smi: O=C1CCc2ccc(OCCCCN3CCN(c4cccc5c4ccn5S(=O)(=O)c4ccccc4)CC3)cc2N1
Target Entity: 5-HT6 receptor, human recombinant (Homo sapiens)
Ki [nM]: 0.35
--
Smi: O=C1CCc2ccc(OCCCN3CCN(c4cccc5c4ccn5S(=O)(=O)c4ccccc4)CC3)cc2N1
Target Entity: 5-HT6 receptor, human recombinant (Homo sapiens)
Ki [nM]: 2.1

Q: For the molecule NC(=O)c1ccccc1OCCCN1CCN(c2cccc3c2ccn3S(=O)(=O)c2ccccc2)CC1 , what Ki is on record?
Ans: 0.31

====

Target: 5-HT6 (h), human recombinant (CHO cells) (Homo sapiens)
Construct: expressed in transfected cells; host or cells: CHO cells
Assay: Cellular functional assay 5-HT6 (h) agonism
Assay type: cell-based
Conditions: compound 1×10^−6 M, control 10 μM serotonin, read-out: 5-HT6-ag [%]
Quick reference: activation at 1 µM of the listed items.
Numeric answer only, unit % assumed.

Smi: O=C1CCc2ccc(OCCCCN3CCN(c4cccc5c4ccn5Cc4cccc(F)c4)CC3)cc2N1
Quantity Name: activation at 1 µM
Val: -1

Smi: O=S(=O)(c1ccccc1)n1ccc2c(N3CCN(CCCOc4ccc5ccoc5c4)CC3)cccc21
Quantity Name: activation at 1 µM
Val: -4

Q: For the molecule O=C1CCc2ccc(OCCCCN3CCN(c4cccc5c4ccn5S(=O)(=O)c4ccccc4)CC3)cc2N1 , what activation at 1 µM is on record?
Ans: 0

====

Test system: α1 adrenergic receptors (rat cerebral cortex)
Assay: Binding assay, α1 adrenergic receptor ([3H]prazosin)
Details: compound 1×10^−6 M
Assign condition met whenever α1 [%] affinity test result does not fall below 60%; assign condition not met whenever it does.

Q: Tell me whether α1 [%] affinity test result is at least 60% here: NC(=O)c1ccccc1OCCCN1CCN(c2cccc3c2ccn3Cc2ccccc2)CC1
Ans: condition not met

Q: Tell me whether α1 [%] affinity test result is at least 60% here: O=C1CCc2ccc(OCCCCN3CCN(c4cccc5c4ccn5S(=O)(=O)c4ccccc4)CC3)cc2N1
Ans: condition met

Q: Tell me whether α1 [%] affinity test result is at least 60% here: O=C1CCc2ccc(OCCCCN3CCN(c4cccc5c4ccn5Cc4ccccc4)CC3)cc2N1
Ans: condition met

Q: Tell me whether α1 [%] affinity test result is at least 60% here: O=C1CCc2ccc(OCCCCN3CCN(c4cccc5c4ccn5Cc4ccccc4F)CC3)cc2N1
Ans: condition not met

Q: Tell me whether α1 [%] affinity test result is at least 60% here: CC(C)Oc1ccccc1OCCCN1CCN(c2cccc3c2ccn3S(=O)(=O)c2ccccc2)CC1
Ans: condition met

Q: Tell me whether α1 [%] affinity test result is at least 60% here: NC(=O)c1ccccc1OCCCN1CCN(c2cccc3c2ccn3Cc2cccc(F)c2)CC1
Ans: condition not met

Q: Tell me whether α1 [%] affinity test result is at least 60% here: NC(=O)c1ccccc1OCCCN1CCN(c2cccc3c2ccn3Cc2ccc(F)cc2)CC1
Ans: condition not met

Measured values drawn from patent US20140121216A1 for this set.
